# Protocol description: PFAS levels in serum samples of airport employees (LC/MS/MS)
# Experimental parameters: median of first serum samples, all 26 airport employees
# Procedure: All 26 employees at the airport were invited for a blood sampling between 11 and 14 September 2018 (i.e., within 11 to 14 d after the termination of contaminated drinking-water exposure). Information on age, home address, employment history, working tasks, and sick leave and vacation days in August and September were collected by questionnaire. […] Aliquots of 4μL of the sample were analyzed using LC/MS/MS. […]
Measurement kind: Serum concentration, molar basis
Form rule: numeric answer, no unit written next to it.

Identify Serum concentration, molar basis associated with the compound `O=S(=O)(O)C(F)(F)C(F)(F)C(F)(F)C(F)(F)C(F)(F)C(F)(F)C(F)(F)C(F)(F)F`
0.019

###

Consider the following molecules and their measured Specific gravity adjusted urinary level, 25 percentile readings.
# Protocol description: PFAS levels in urine samples of airport employees, specific-gravity adjusted (LC/MS/MS)
# Type: in vivo, human
# Experimental parameters: 4th sampling (December 2018), count 14
// note: answer is a bare numeric in ng/mL

Worked cases, answers included:
Identify Specific gravity adjusted urinary level, 25 percentile associated with the molecule `O=C(O)C(F)(F)C(F)(F)C(F)(F)C(F)(F)C(F)(F)C(F)(F)F`
0.01

Identify Specific gravity adjusted urinary level, 25 percentile associated with the molecule `O=S(=O)(O)C(F)(F)C(F)(F)C(F)(F)C(F)(F)C(F)(F)C(F)(F)F`
0.05

Identify Specific gravity adjusted urinary level, 25 percentile associated with the molecule `O=S(=O)(O)C(F)(F)C(F)(F)C(F)(F)C(F)(F)C(F)(F)F`
0.07

Kindly consider the entry below.
Identify Specific gravity adjusted urinary level, 25 percentile associated with the molecule `O=C(O)C(F)(F)C(F)(F)C(F)(F)C(F)(F)C(F)(F)C(F)(F)C(F)(F)F`
0.02

###

Consider the following compounds and their measured Serum PFAS level, Min readings.
# Protocol description: PFAS levels in serum samples of airport employees (LC/MS/MS)
# Experimental parameters: 3rd sampling (November, 2018), count 17
Form rule: numeric answer, no unit written next to it.

Identify Serum PFAS level, Min associated with the compound `O=S(=O)(O)C(F)(F)C(F)(F)C(F)(F)C(F)(F)C(F)(F)C(F)(F)C(F)(F)F`
0.47

Further cases:
Identify Serum PFAS level, Min associated with the compound `O=C(O)C(F)(F)C(F)(F)C(F)(F)C(F)(F)C(F)(F)F`
0.13

Identify Serum PFAS level, Min associated with the compound O=S(=O)(O)C(F)(C(F)(F)F)C(F)(F)C(F)(F)C(F)(F)C(F)(F)C(F)(F)C(F)(F)F (stereo not drawn) [1m-PFOS, perfluoro-1-methylheptanesulfonate]
0.24

Identify Serum PFAS level, Min associated with the compound `O=S(=O)(O)C(F)(F)C(F)(F)C(F)(F)C(F)(F)C(F)(F)C(F)(F)F`
20

Identify Serum PFAS level, Min associated with the compound `O=C(O)C(F)(F)C(F)(F)C(F)(F)C(F)(F)C(F)(F)C(F)(F)F`
0.08

Identify Serum PFAS level, Min associated with the compound `O=S(=O)(O)C(F)(F)C(F)(F)C(F)(F)C(F)(F)C(F)(F)C(F)(F)C(F)(F)C(F)(F)F`
4.7

Identify Serum PFAS level, Min associated with the compound `O=C(O)C(F)(F)C(F)(F)C(F)(F)C(F)(F)C(F)(F)C(F)(F)C(F)(F)F`
4.6

Identify Serum PFAS level, Min associated with the compound `O=S(=O)(O)C(F)(F)C(F)(F)C(F)(F)C(F)(F)C(F)(F)F`
2.1

###

# Protocol description: Individual serum elimination rate and half-life (linear regression per employee)
# Experimental parameters: individual estimate, subject 1, 5 samples
The label rule met is reserved for Elimination rate strictly under 2 yearly; rule not met covers values equal to or above it.

Find out if reported Elimination rate for `O=S(=O)(O)C(F)(F)C(F)(F)C(F)(F)C(F)(F)C(F)(F)C(F)(F)C(F)(F)C(F)(F)F` is less than 2 yearly
rule met

Find out if reported Elimination rate for `O=S(=O)(O)C(F)(F)C(F)(F)C(F)(F)C(F)(F)C(F)(F)C(F)(F)C(F)(F)F` is less than 2 yearly
rule met

Find out if reported Elimination rate for `O=C(O)C(F)(F)C(F)(F)C(F)(F)C(F)(F)C(F)(F)C(F)(F)F` is less than 2 yearly
rule not met

Find out if reported Elimination rate for `O=S(=O)(O)C(F)(F)C(F)(F)C(F)(F)C(F)(F)C(F)(F)C(F)(F)F` is less than 2 yearly
rule met

Find out if reported Elimination rate for `O=S(=O)(O)C(F)(F)C(F)(F)C(F)(F)C(F)(F)F` is less than 2 yearly
rule not met

###

# Protocol description: PFAS levels in serum samples of airport employees (LC/MS/MS)
# Experimental parameters: 4th sampling (December 2018), count 16
Consider the following compounds and their measured Serum PFAS level, Max readings.
Form rule: numeric answer, no unit written next to it.

Identify Serum PFAS level, Max associated with the compound `O=S(=O)(O)C(F)(F)C(F)(F)C(F)(F)C(F)(F)C(F)(F)C(F)(F)F`
381

Identify Serum PFAS level, Max associated with the compound `O=C(O)C(F)(F)C(F)(F)C(F)(F)C(F)(F)C(F)(F)C(F)(F)F`
1.8

Identify Serum PFAS level, Max associated with the compound `O=S(=O)(O)C(F)(F)C(F)(F)C(F)(F)C(F)(F)C(F)(F)C(F)(F)C(F)(F)C(F)(F)F`
24

Identify Serum PFAS level, Max associated with the compound O=S(=O)(O)C(F)(C(F)(F)F)C(F)(F)C(F)(F)C(F)(F)C(F)(F)C(F)(F)C(F)(F)F (stereo not drawn) [1m-PFOS, perfluoro-1-methylheptanesulfonate]
4.3

Identify Serum PFAS level, Max associated with the compound `O=S(=O)(O)C(F)(F)C(F)(F)C(F)(F)C(F)(F)F`
0.52

Identify Serum PFAS level, Max associated with the compound `O=C(O)C(F)(F)C(F)(F)C(F)(F)C(F)(F)C(F)(F)F`
0.87

Identify Serum PFAS level, Max associated with the compound `O=S(=O)(O)C(F)(F)C(F)(F)C(F)(F)C(F)(F)C(F)(F)C(F)(F)C(F)(F)F`
5.9

Identify Serum PFAS level, Max associated with the compound `O=S(=O)(O)C(F)(F)C(F)(F)C(F)(F)C(F)(F)C(F)(F)F`
14

Further cases:
Identify Serum PFAS level, Max associated with the compound `O=C(O)C(F)(F)C(F)(F)C(F)(F)C(F)(F)C(F)(F)C(F)(F)C(F)(F)F`
27

###

# Protocol description: PFAS levels in serum samples of airport employees (LC/MS/MS)
# Experimental parameters: males (N=19)
Measurement kind: Initial serum PFAS level, median (ng/mL)
// note: answer is a bare numeric in ng/mL

Worked cases, answers included:
Identify Initial serum PFAS level, median associated with the compound `O=S(=O)(O)C(F)(F)C(F)(F)C(F)(F)C(F)(F)F`
0.32

Identify Initial serum PFAS level, median associated with the compound `O=S(=O)(O)C(F)(F)C(F)(F)C(F)(F)C(F)(F)C(F)(F)C(F)(F)F`
78

Kindly consider the entry below.
Identify Initial serum PFAS level, median associated with the compound `O=C(O)C(F)(F)C(F)(F)C(F)(F)C(F)(F)C(F)(F)F`
0.42

###

Consider the following molecules and their measured Initial serum PFAS level, median readings.
# Protocol description: PFAS levels in serum samples of airport employees (LC/MS/MS)
# Experimental parameters: males (N=19)
Express the reported value numerically, then name its unit.

Worked cases, answers included:
Identify Initial serum PFAS level, median associated with the molecule `O=S(=O)(O)C(F)(F)C(F)(F)C(F)(F)C(F)(F)C(F)(F)F`
7.2 ng/mL

Identify Initial serum PFAS level, median associated with the molecule O=S(=O)(O)C(F)(C(F)(F)F)C(F)(F)C(F)(F)C(F)(F)C(F)(F)C(F)(F)C(F)(F)F (stereo not drawn) [1m-PFOS, perfluoro-1-methylheptanesulfonate]
1.1 ng/mL

Identify Initial serum PFAS level, median associated with the molecule `O=S(=O)(O)C(F)(F)C(F)(F)C(F)(F)C(F)(F)C(F)(F)C(F)(F)C(F)(F)F`
1.4 ng/mL

Identify Initial serum PFAS level, median associated with the molecule `O=S(=O)(O)C(F)(F)C(F)(F)C(F)(F)C(F)(F)C(F)(F)C(F)(F)C(F)(F)C(F)(F)F`
10 ng/mL

Identify Initial serum PFAS level, median associated with the molecule `O=C(O)C(F)(F)C(F)(F)C(F)(F)C(F)(F)C(F)(F)C(F)(F)F`
0.45 ng/mL

Further cases:
Identify Initial serum PFAS level, median associated with the molecule `O=C(O)C(F)(F)C(F)(F)C(F)(F)C(F)(F)C(F)(F)C(F)(F)C(F)(F)F`
11 ng/mL
